experiment: protein stability index of a GFP-peptide fusion (yeast GPS) (PSI 1-4); higher = more stable; sorted into four equal gates, so the index is relative within each strain; conditions: pdr5∆
Please respond with reported protein stability index for every item in the list.
One number for each entry.

// worked examples, protein stability index included
recordSequence: QDIYYLAQTLKLWRKIA [RRI2]
obsValue: 2.17

recordSequence: VLVDEIKSQYYSRISKL [YIL149C/MLP2]
obsValue: 2.46

Query: Would you mind telling me what protein stability index value was observed for RPYGVGLLIIGYDKSGA [PRE5] ?
Response: 1.08

----------
assay: protein stability index of a GFP-peptide fusion (yeast GPS) (PSI 1-4); higher = more stable; sorted into four equal gates, so the index is relative within each strain; conditions: pdr5∆
readoutKind: protein stability index
Numbers only.

Solved entries:
recordSequence: SSTKPPGSVNSAAKYKD [NUT1]
protein stability index: 2.64

recordSequence: LPPPPPPPGLDELETKA [PRP8]
protein stability index: 3.15

recordSequence: EKPLTPLKYTKLIAAAE [SNF6]
protein stability index: 1.27

recordSequence: FSMGHIRSSSVSLVAEA [MED4]
protein stability index: 1.67

recordSequence: KKMGVPYAIIKGKARLG [RPL8B]
protein stability index: 2.12

recordSequence: YNSRPRSVRIPWYNNPV [PRP8]
protein stability index: 2.22

Here are 4 sequences. What values of protein stability index were reported for them?
1. GKYTLGYKSTVKSLRQG [RPL30]
2. IPSLQNNIEENLRLLNS [ECM29]
3. PELFESLGIAQPKGVIL [RPT6]
4. MNHDPFSWGRPADSTYG [PRE4]

Response:
[2.34, 3.17, 2.82, 3.28]

Please state, for each entry, its recorded protein stability index.
1. TQVYKLGLAKSVHHARV [RPS9A]
2. SKNLGEINTALNTLLVT [SWI1]
3. GYYVGYKATATGPKQQE [SCL1]
4. ANFKTSKKYQLADWRIR [RRP6]
5. FERLVPRGTAKLIIHRK [SMC3]

Response:
1.48
1.79
3.2
3.05
2.98

Parameters: items (list). Returns: protein stability index for each item.
1. EGLIRLDNLTEDPNSAA [DIS3]
2. DEEMAVLTRMDEDRSKK [SNF2]
3. SATFLRIVGSELIQKYL [RPT2]
4. QKLHKVKKASGEIVSIN [RPL20A]
5. NNDVFTIGPYRARKDRM [SSN3]
6. IFHPMIHYSWSFILYYR [YML103C/NUP188]
7. GPKLRASDLKINELFKK [RPN8]

Response:
1. 3.31
2. 2.66
3. 1.46
4. 2.61
5. 3.11
6. 1.68
7. 1.42

Kindly give each listed record's protein stability index.
1. DFQIDGNIFELLSDTFE [RRI2]
2. TKTVKRASKALIERYYP [RPS17A]

Response:
1: 2.47; 2: 2.57

Report protein stability index for each item below.
1. AVTHNLYYDEDINVESL [PUP2]
2. FVIRREVTKGEKTYTKA [RPS6A]
3. SNTYKEERSNNLLTPQP [MCD1]
4. AELVQKYIGEGSRMVRE [RPT6]
5. ASGSINRKVLQALEKIG [RPS19A]

Response:
1. 3.25
2. 3.13
3. 3.18
4. 2.69
5. 2

Take each entry in turn and give its protein stability index.
1. FITKHLPLLILENSSRS [NUT1]
2. ERSLRQKYNLLHVLPTL [SNM1]
3. KPVYKGKKLTDEINTAQ [RET1]
4. AASWYGSFNEMKRNCGQ [RMP1]
5. TEFSKNDLEVGVATKDK [SCL1]

Response:
1.41
1.3
2.99
3.3
3.03

For every record below, what is its protein stability index?
1. QQLNKQRQDFERVRLRP [SNF6]
2. AQDFKTDLRFQSSAIGA [HHT1]

Response:
2.73
1.41

Return reported protein stability index values for all items listed beneath this line.
1. ENDAKKSKGDVDIKGED [NUT1]
2. PFYGSYTETDPAKVAEE [SRP54]
3. LVPPPRTIANQDHFHRL [RPR2]
4. REDIDDPLAKVNVLLQS [BRR2]
5. HQFHDILEEKTDLHLPK [NSL1]
6. QIDYKLESFQAVYNKLT [RPS7A]
7. FMLRKQDPKTLVALLSR [SSN2]

Response:
[3.27, 3.01, 3.15, 3.04, 2.29, 2.4, 1.84]

Provide the reported protein stability index of each entry below, same order.
1. CQLQNSDNSEEEEVDID [RRP43]
2. GLFPFESYKPSVQLPDM [SWI3]

Response:
1. 3.22
2. 2.88
